# Tgt: IN-LEDGF/p75 interaction (Human immunodeficiency virus type 1 group M subtype B, UniProt P12497, C1427S/F1332K)
# Construct: His6 (C); made in house; host or cells: E. coli
# Experimental details: biochemical
# Format: binding, HIV-1
# Test settings: HTRF, 50 μM final concentration
Measurement kind: inhibitory activity against IN-LEDGF/p75 interaction (in words)

COc1cc(-c2oc3cc(OC)c(OC)c(O)c3c(=O)c2OC)ccc1O [compound 19] :: reduced
Oc1cc(O)c2c(c1)O[C@H](c1cc(O)c(O)c(O)c1)[C@H](O)C2 [compound 68] :: effectively blocked
Oc1cc(O)c2c(c1)O[C@H](c1ccc(O)c(O)c1)[C@@H](O)C2 [compound 70] :: effectively blocked
COc1ccc(-c2oc3cc(O)cc(O)c3c(=O)c2OC)cc1O [compound 15] :: reduced
